- Study target: T1, human CD20 antigen (human, UniProt P11836 1-297)
- T1 construct: whole, on cells; also called Bp35; B1
- T1 sequence (looked up): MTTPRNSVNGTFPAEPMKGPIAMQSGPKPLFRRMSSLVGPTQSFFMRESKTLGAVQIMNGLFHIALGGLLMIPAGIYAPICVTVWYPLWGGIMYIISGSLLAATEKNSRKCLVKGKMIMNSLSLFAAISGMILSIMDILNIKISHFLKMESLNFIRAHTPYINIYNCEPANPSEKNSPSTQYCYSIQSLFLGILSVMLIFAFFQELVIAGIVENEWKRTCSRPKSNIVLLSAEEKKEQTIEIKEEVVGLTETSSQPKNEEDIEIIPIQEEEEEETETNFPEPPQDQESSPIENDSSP
- Measurement notes: flow cytometry, EHEB cells (CD20 positive)
- Description: Binding specificity was assessed by Flow Cytometry, which tabulates Mean Fluorescence Intensities (MFI) of staining on CD20 positive (CD20⁺) and CD20 negative cell lines.
Value type: Mean Fluorescence Intensity (MFI)
Answer format: numeric, MFI implied, no suffix.

Quick note, Mean Fluorescence Intensity (MFI) for optimized humanized mAb 1588 (antibody, V domains shown) VH: QVQLVQSGAEVKKPGSSVKVSCKASGYTFTFYNMHWVRQAPGQGLEWIGAIYPGNGDTSYNQKFKGKATITADKSTSTAYMELSSLRSDDTAVYYCARSTYYAGDWNFNNWGQGTLVTVSS VL: DIQMTQSPSSLSASVGDRVTITCRASSSVSYIHWFQQKPGKAPKPLIYAASSLQSGVPSRFSGSGSGTDYTLTISSLQPEDFATYYCQQWTSNPPTFGGGTKLEIK landed at 338

Sourced from patent US20160376372A1
